B1: PBXIP1 (parent)
chain: FGEDGIFRHDRLRFRDFVDALEDS

- Variants of: B1
- ASSAY_DETAILS: protein stability index of a GFP-peptide fusion (GPS, HEK-293T) (PSI 1-6); higher = more stable;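 also: lentivirally expressed fusions sorted by FACS into six bins by GFP to DsRed ratio, PSI derived from sequencing read proportions per bin multiplied by bin number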
- CONDITION: c terminus: a fixed tail appended
Class Yes: protein stability index at least 3. Class No: protein stability index below 3.

>>> qualitative_label("FGEDGIFRHDRLRFRRFVDALEDS [D16R]")
"No"
>>> qualitative_label("FGEDGIFRHDRLRFRDFVDALEDQ [S24Q]")
"No"
>>> qualitative_label("FGEDGIFRHDRLRFRDFVDGLEDS [A20G]")
"Yes"
>>> qualitative_label("FGEDGIFRPDRLRFRDFVDALEDS [H9P]")
"No"
>>> qualitative_label("FGEDGIFRHMRLRFRDFVDALEDS [D10M]")
"No"
>>> qualitative_label("FGEDGIFRHDRLRFRPFVDALEDS [D16P]")
"No"
>>> qualitative_label("FAEDGIFRHDRLRFRDFVDALEDS [G2A]")
"No"
>>> qualitative_label("FGEDGIFRHDRLRFRDDVDALEDS [F17D]")
"Yes"
>>> qualitative_label("FGEDSIFRHDRLRFRDFVDALEDS [G5S]")
"No"
>>> qualitative_label("FGEDGIFRHDRLRFRDFVDNLEDS [A20N]")
"No"
>>> qualitative_label("FGEDGIFRHDRLNFRDFVDALEDS [R13N]")
"Yes"
>>> qualitative_label("FGEPGIFRHDRLRFRDFVDALEDS [D4P]")
"No"
>>> qualitative_label("FGEDGIFRHDRLRFRDFVDELEDS [A20E]")
"Yes"
>>> qualitative_label("FGEDGIFRHDRLRFRDFVDALECS [D23C]")
"No"
>>> qualitative_label("FGEDGIFRHDRLRFRAFVDALEDS [D16A]")
"No"
>>> qualitative_label("FDEDGIFRHDRLRFRDFVDALEDS [G2D]")
"Yes"
>>> qualitative_label("FGEDGAFRHDRLRFRDFVDALEDS [I6A]")
"No"
>>> qualitative_label("WGEDGIFRHDRLRFRDFVDALEDS [F1W]")
"Yes"
>>> qualitative_label("FGEDGIFREDRLRFRDFVDALEDS [H9E]")
"Yes"
